B1: LYSMD4 (parent)
chain: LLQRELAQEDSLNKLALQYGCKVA

Variants of: B1
test: protein stability index of a GFP-peptide fusion (GPS, HEK-293T) (PSI 1-6); higher = more stable;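 also: lentivirally expressed fusions sorted by FACS into six bins by GFP to DsRed ratio, PSI derived from sequencing read proportions per bin multiplied by bin number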
condition.set: c terminus: a fixed tail appended
I'd be grateful if you could share measured protein stability index for these entries.
Numbers only.

Solved entries:
mutant_code=G20N endpoint_result=2.37
mutant_code=Y19S endpoint_result=3.13
mutant_code=N13C endpoint_result=2.49
mutant_code=E5S endpoint_result=1.87

I need protein stability index for every entry listed below, if you could help.
1. L15S
2. L12C
3. K22A
4. V23T
5. L1K
6. A24G
7. L6Q
8. E9D

Response given:
1. 2.88
2. 1.72
3. 2.7
4. 2.58
5. 1.99
6. 2.1
7. 2.18
8. 2.68
